# target.desc: human CD73 (Homo sapiens, UniProt P21589)
# Sequence (P21589 27-549): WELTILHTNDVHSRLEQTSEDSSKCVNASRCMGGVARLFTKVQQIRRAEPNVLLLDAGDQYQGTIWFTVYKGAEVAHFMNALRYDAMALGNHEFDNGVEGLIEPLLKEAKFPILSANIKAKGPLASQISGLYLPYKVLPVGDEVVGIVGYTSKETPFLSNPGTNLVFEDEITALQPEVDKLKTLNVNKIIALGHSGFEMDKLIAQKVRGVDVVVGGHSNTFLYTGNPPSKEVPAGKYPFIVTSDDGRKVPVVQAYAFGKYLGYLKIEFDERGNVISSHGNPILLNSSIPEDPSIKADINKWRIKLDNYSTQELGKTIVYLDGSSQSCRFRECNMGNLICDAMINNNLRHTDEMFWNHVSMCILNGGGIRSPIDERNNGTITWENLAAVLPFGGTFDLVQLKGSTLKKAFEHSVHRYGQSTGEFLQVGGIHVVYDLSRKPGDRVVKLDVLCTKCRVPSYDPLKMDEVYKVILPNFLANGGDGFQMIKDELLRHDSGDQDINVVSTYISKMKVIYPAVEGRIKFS
# test.details: Inhibitor activity against CD73 in cell based assay (CD73 expressing CHO-K1 cells)
# condition.parameters: CHO-K1 cells expressing human CD73, 150 μM AMP, 4 hours of incubation; read-out: CHO-K1 CELL VARIANT: CD73 IC50
pIC50: −log10 of the molar value.
readout.kind: pIC50

O=C(NC1CC1)N[C@H]1CC[C@@H](NC(=O)O[C@@H]2CCN(c3cn[nH]c(=O)c3Cl)C2)CC1 ... 5.00 to 9.00
O=C(NCc1cc(C2CC2)[nH]n1)O[C@@H]1CCN(c2cn[nH]c(=O)c2Cl)C1 ... 4.00 to 5.00
O=C(NC1CCC(F)(F)CC1)O[C@H]1CN(c2cn[nH]c(=O)c2Cl)C[C@@H]1F ... 5.00 to 9.00
O=C(NC1CCC(C(F)(F)F)CC1)O[C@@H]1CCN(c2cn[nH]c(=O)c2Cl)C1 (some centres unmarked) ... 5.00 to 9.00
O=C(NCC1CCOCC1)O[C@@H]1CCN(c2cn[nH]c(=O)c2Cl)C1 ... 5.00 to 9.00

Specify reported pIC50 for the compound shown: CS(=O)(=O)N1CCC(NC(=O)N[C@@H]2CCN(c3cn[nH]c(=O)c3Cl)C2)CC1
4.00 to 5.00

Specify reported pIC50 for the compound shown: O=C(NC1CC(F)(F)C1)O[C@@H]1CCN(c2cnn(CCO)c(=O)c2Cl)C1
5.00 to 9.00

Specify reported pIC50 for the compound shown: COc1ccc(S(=O)(=O)C[C@H]2CC[C@H](NC(=O)O[C@@H]3CCN(c4cn[nH]c(=O)c4Cl)C3)CC2)cc1
5.00 to 9.00

* * *

# target.desc: human CD73 (Homo sapiens)
# test.details: Inhibitor activity against CD73 in cell based assay (CD73 expressing CHO-K1 cells)
# condition.parameters: CHO-K1 cells expressing human CD73, 150 μM AMP, 4 hours of incubation; read-out: CHO-K1 CELL VARIANT: CD73 IC50
pIC50: −log10 of the molar value.
We begin with a simple list: items and their reported pIC50.

Worked examples, 3 compounds total:
Cc1cc(NC(=O)O[C@@H]2CCN(c3cn[nH]c(=O)c3Cl)C2)no1 ... 5.00 to 9.00
O=C(NC1CCN(C(=O)NC2CC2)CC1)O[C@@H]1CCN(c2cn[nH]c(=O)c2Cl)C1 ... 5.00 to 9.00
O=C(N[C@H]1CC[C@H](NS(=O)(=O)c2ccc(Cl)cc2)CC1)O[C@@H]1CCN(c2cn[nH]c(=O)c2Cl)C1 ... 5.00 to 9.00

Specify reported pIC50 for the compound shown: O=C(NC1CCCCC1)N[C@H]1CC[C@@H](NC(=O)O[C@@H]2CCN(c3cn[nH]c(=O)c3Cl)C2)CC1
5.00 to 9.00

Specify reported pIC50 for the compound shown: C[C@@H]1CCCC[C@H]1NC(=O)O[C@@H]1CCN(c2cn[nH]c(=O)c2Cl)C1
5.00 to 9.00

Specify reported pIC50 for the compound shown: O=C(N[C@H]1CC[C@@H](NC2CCOCC2)CC1)O[C@@H]1CCN(c2cn[nH]c(=O)c2Cl)C1
5.00 to 9.00

Specify reported pIC50 for the compound shown: Cn1ncc(N2CC[C@@H](OC(=O)N[C@H]3CC[C@H](NS(=O)(=O)NC4CCCC4)CC3)C2)c(Cl)c1=O
5.00 to 9.00

Specify reported pIC50 for the compound shown: O=C(NC1CCC(F)(F)CC1)O[C@@H]1CN(c2cn[nH]c(=O)c2Cl)C[C@H]1F
5.00 to 9.00

Specify reported pIC50 for the compound shown: CC(C)(C)OC(=O)NCC(=O)N1CCC(NC(=O)O[C@@H]2CCN(c3cn[nH]c(=O)c3Cl)C2)CC1
5.00 to 9.00

Specify reported pIC50 for the compound shown: O=C(N[C@H]1CC[C@H](NS(=O)(=O)c2c(F)cccc2F)CC1)O[C@@H]1CCN(c2cn[nH]c(=O)c2Cl)C1
5.00 to 9.00

Specify reported pIC50 for the compound shown: O=C(NC1CCCC(F)(F)C1)O[C@@H]1CCN(c2cnn(CCO)c(=O)c2Cl)C1 (stereo partly shown)
5.00 to 9.00

Specify reported pIC50 for the compound shown: C[C@]1(O)CC[C@H](NC(=O)O[C@@H]2CCN(c3cn[nH]c(=O)c3Cl)C2)CC1
5.00 to 9.00

Specify reported pIC50 for the compound shown: O=C(NC1CCN(C(=O)CO)CC1(F)F)O[C@@H]1CCN(c2cn[nH]c(=O)c2Cl)C1 (stereo partly shown)
5.00 to 9.00
